System: Atoh1 enhancer reporter in HEK293 cells
Test summary: Atoh1 reporter cell line, firefly luciferase normalized to renilla luciferase
Assay type: cell-based
Experimental parameters: Homo sapiens, HEK293, 48 h, Atoh1 reporter HEK293 cells, treated 2 days, dose response; read-out: ED50 (the source's name)
Method: FIG. 2. Dose response data for selected hits. Atoh1 reporter cells plated in 384 well plates were treated with test compounds or vehicle controls for 2 days. Firefly luciferase signal was measured and normalized to the renilla luciferase signal. […] A reporter cell line expressed in HEK293 cells in which Atoh1 enhancer elements flanked a minimal promoter driving firefly luciferase expression was created. […] Firefly luciferase signal was measured and normalized to the renilla luciferase signal. […]
pEC50: −log10 of the molar value.
Param threshold (6) applies to pEC50; output TRUE when value >= threshold, FALSE when value < threshold.

* Cc1nc(NC(=O)c2oc3ccccc3c2C)sc1C(=O)N(C)C | FALSE

Item Cc1c(C(=O)Nc2nccs2)oc2ccc(Cl)cc12 with pEC50 of 6 or above?
TRUE

Item Cc1csc(NC(=O)c2oc3ccc(Br)cc3c2C)n1 with pEC50 of 6 or above?
FALSE

* * *

pEC50 for assorted molecules
Test system: Atoh1 enhancer reporter in HEK293 cells
Test summary: Atoh1 reporter cell line, firefly luciferase normalized to renilla luciferase
Type: cell-based
Experimental parameters: Homo sapiens, HEK293, 48 h, Atoh1 reporter HEK293 cells, treated 2 days, dose response; read-out: ED50 (the source's name)
Hey, just a heads up that pEC50 is the negative log base 10 of the concentration in molar.

Examples from the recorded data:
• CN(C(=O)c1cc2cccc(Br)c2o1)c1nccs1 [Compound 29] = 5.85
• O=C(Nc1nccs1)c1cc2ccccc2o1 [Compound 13] = 6.40
• CC(=O)c1sc(NC(=O)c2cc3ccccc3o2)nc1C [Compound 39] = 6.30
• Cc1c(C(=O)Nc2nccs2)oc2ccc(Br)cc12 [Compound 36] = 6.10
• Cc1c(C(=O)Nc2nccs2)oc2c(Cl)cccc12 [Compound 19] = 6.15

Field request: pEC50 | item: Cc1csc(NC(=O)c2oc3ccc(F)cc3c2C)n1 [Compound 37]
5.64

Field request: pEC50 | item: Cc1nc(NC(=O)c2oc3ccccc3c2C)sc1C [Compound 3]
5.57

* * *

EC50 for assorted compounds
Test system: Atoh1 enhancer reporter in HEK293 cells
Test summary: Atoh1 reporter cell line, firefly luciferase normalized to renilla luciferase
Assay type: cell-based
Experimental parameters: Homo sapiens, HEK293, 48 h, Atoh1 reporter HEK293 cells, treated 2 days, dose response; read-out: ED50 (the source's name)
The answer is to be given in nM; state only the numeric part.

Examples from the recorded data:
• CSCc1c(C(=O)Nc2nccs2)oc2ccccc12 = 500
• COc1cccc2cc(C(=O)Nc3ncc(C)s3)oc12 = 1000
• COc1ccc2nc(NC(=O)c3oc4ccccc4c3C)sc2c1 = 700
• Cc1c(C(=O)Nc2nccs2)oc2ccccc12 = 1300

Attention now shifts to the item below.
Field request: EC50 | item: CCOC(=O)c1sc(NC(=O)c2oc3ccccc3c2C)nc1C
700

* * *

System: Atoh1 enhancer reporter in HEK293 cells
Test summary: Atoh1 reporter cell line, firefly luciferase normalized to renilla luciferase
Format: cell-based
Experimental parameters: Homo sapiens, HEK293, 48 h, Atoh1 reporter HEK293 cells, treated 2 days, dose response; read-out: ED50 (the source's name)
Test readout: pEC50
Hey, just a heads up that pEC50 is the negative log base 10 of the concentration in molar.

Examples from the recorded data:
* CCOc1ccc2oc(C(=O)Nc3nccs3)c(C)c2c1 | 6.30
* COCc1c(C(=O)Nc2nccs2)oc2ccccc12 | 5.77
* CSCc1c(C(=O)Nc2nc(C)cs2)oc2ccccc12 | 5.89
* O=C(Nc1nccs1)c1oc2ccccc2c1COc1ccccc1 | 6.15
* Cc1cnc(NC(=O)c2oc3ccc(Br)cc3c2C)s1 | 6.40
* COc1cccc2cc(C(=O)Nc3nccs3)oc12 | 5.57

Observed pEC50 on Atoh1 enhancer reporter in HEK293 cells for Cc1c(C(=O)Nc2nc(-c3ccccc3)cs2)oc2ccccc12 , please.
5.89

Observed pEC50 on Atoh1 enhancer reporter in HEK293 cells for Cc1c(C(=O)Nc2nc(C(C)(C)C)cs2)oc2ccccc12 , please.
5.89

Observed pEC50 on Atoh1 enhancer reporter in HEK293 cells for CN(C(=O)c1cc2ccccc2o1)c1nccs1 , please.
6.15

Observed pEC50 on Atoh1 enhancer reporter in HEK293 cells for CCc1nc(NC(=O)c2oc3c(F)cccc3c2C)sc1C , please.
6.00

Observed pEC50 on Atoh1 enhancer reporter in HEK293 cells for Cc1c(C(=O)Nc2nccs2)oc2ccc(F)cc12 , please.
6.22

* * *

Tested on: Atoh1 enhancer reporter in HEK293 cells
Test summary: Atoh1 reporter cell line, firefly luciferase normalized to renilla luciferase
Format: cell-based
Experimental parameters: Homo sapiens, HEK293, 48 h, Atoh1 reporter HEK293 cells, treated 2 days, dose response; read-out: ED50 (the source's name)
Mark Yes only for EC50 values smaller than 600 nM; exact matches and larger values are No.

Example entries and their recorded answers appear below.
• O=C(Nc1nc2c(s1)CCCC2)c1cc2ccccc2o1 [Compound 17] = Yes
• Cc1cnc(NC(=O)c2cc3ccccc3o2)s1 [Compound 27] = Yes
• COc1ccc2oc(C(=O)Nc3nc(C)cs3)c(C)c2c1 [Compound 35] = Yes

# input for lookup
Item Cc1c(C(=O)N(C)c2nccs2)oc2ccccc12 [Compound 1] : EC50 beneath 600 nM, strictly?
No

* * *

Tested on: Atoh1 enhancer reporter in HEK293 cells
Test summary: Atoh1 reporter cell line, firefly luciferase normalized to renilla luciferase
Assay type: cell-based
Experimental parameters: Homo sapiens, HEK293, 48 h, Atoh1 reporter HEK293 cells, treated 2 days, dose response; read-out: ED50 (the source's name)
pEC50: −log10 of the molar value.
Test readout: pEC50

Field request: pEC50 | item: Cc1csc(N(C(=O)c2cc3ccccc3o2)c2ccccc2)n1
< 5.52

Field request: pEC50 | item: Cc1csc(NC(=O)c2oc3c(Cl)cccc3c2C)n1
< 5.52

Field request: pEC50 | item: Cc1c(C(=O)Nc2nccs2)oc2c1ccc1ccccc12
< 5.52
